The reported numbers originate from PubChem BioAssay (NCATS).

assay: Primary qHTS for inhibitors of nuclear receptor binding SET domain protein 2 (NSD2) in an RCH-ACV wild type WT cells (2C) (AID 1645877); details: RCH-ACV (leukaemia line) NSD2 WT (2C) viability, CellTiter-Glo, 72 h; series mostly up to 44.9 µM; note: nearly all actives have a fitted effect of over 70% in size
Inconclusive results are not listed. Calls of active or inactive are those of the source. Calls come from the whole dose curve; as a rule, active = well fitted inhibition curve with a large enough effect; inconclusive = small, poorly fitted or top-dose-only effect; inactive = no such curve, though single readings can be large or run the other way.
Outcome codes: 1 for active, 0 for inactive

# compound, answer.label
measured = [
    ("CCS(=O)c1nc(-c2cccc(OCc3ccccc3)c2)cc(C(F)(F)F)n1 (stereo unspecified)", 1),
    ("NCC(CNc1nc(Nc2cccc(NC(=O)N3CCCC3)c2)ncc1I)C(=O)c1cccs1 (stereo unspecified)", 1),
    ("CN(C)Cc1ccc(-c2cnn3c(-c4cccc(NC(=O)c5cccc(C(F)(F)F)c5)c4)ccnc23)cc1", 1),
    ("CC(C)C[C@H](C(=O)O)c1cc(-c2ccc(C(F)(F)F)cc2)cc(-c2ccc(C(F)(F)F)cc2)c1", 1),
    ("C=C[C@@]12COC(=O)C(=C)[C@@H]1[C@@H](O)[C@H](C(=C)C(=O)OC)[C@@H](O)C2", 0),
    ("C=C1C(=O)OC2C(OC(=O)C=C(C)C)C(C)=C3C(=O)C=C(C)C3C(O)C12 (stereo unspecified)", 1),
    ("Cc1[nH]c(/C=C2\\C(=O)Nc3cc(-c4ccccc4)ccc32)c(C)c1CCC(=O)O", 1),
    ("COc1ccccc1C(=O)Nc1cccc(NC(=O)c2cccc(C)c2)c1", 0),
    ("C=C1C(=O)O[C@H]2C[C@@H](C)[C@@H]3CCC(=O)[C@@]3(C)C[C@H]12", 1),
    ("CC1=CC2/C=C(\\C)CCC(O)C(=O)C(O)CC(=O)C23C(=O)NC(CC(C)C)C3C1C (stereo unspecified)", 1),
    ("COc1ccc(-n2c(SCCCN3C(=O)c4cccc5cccc(c45)C3=O)nnc2-c2ccncc2)cc1", 0),
    ("C=C(C=O)[C@]1(O)C[C@@]2(C)C(=CC1=O)C=C[C@H](OC(=O)/C=C/C=C/[C@H](C)CC)[C@@H]2C", 1),
    ("O=C(/C=C/c1ccccc1O)O[C@@H]1O[C@H](CO)[C@@H](O)[C@H](O)[C@H]1O", 0),
    ("CC(C)c1cc(-c2ccc(F)c3ccccc23)nc(N)n1", 0),
    ("CC1(C)CC[C@]23CO[C@@]4(CCC5[C@@]6(C)CC[C@H](O[C@@H]7OC[C@H](O[C@@H]8O[C@H](CO)[C@@H](O)[C@H](O)[C@H]8O[C@@H]8OC[C@@H](O)[C@H](O)[C@H]8O)[C@H](O)[C@H]7O[C@@H]7O[C@H](CO)[C@@H](O)[C@H](O)[C@H]7O)[C@@](C)(CO)C6CC[C@@]5(C)[C@]4(C)C[C@H]2O)[C@@H]3C1 (stereo partly specified)", 1),
    ("COc1cc([C@H]2O[C@H](c3cc(OC)c4c(c3)OCO4)[C@H](C)[C@H]2C)cc(OC)c1OC", 1),
]
